Biological target: α/β TCR/CD3 complex on Jurkat, Clone E6-1 cells (human) (UniProt P07766)
Experiment: flow cytometry on Jurkat Clone E6-1 cells, Fab titration 10 µg/ml to 10 ng/ml; EC50 of MFI, fold decrease vs TPP-1374
Mark F for fold decrease in EC50 values under 4 fold, and T for everything at or above.

## Task API: above_or_equal(metric=fold decrease in EC50, cutoff=4 fold) for item TPP-1360 Fab fragment (Fab, V domains shown) VH: EVQLVQSGAEVKKPGASVKVSCKASGYKFTRYVMHWVRQAPGQGLEWMGYINPYNDVTKYAEKFQGRVTLTSDTSTSTAYMELSSLRSEDTAVHYCARGSYYDYEGFVYWGQGTLVTVSS VL: QIQMTQSPSSLSASVGDRVTITCSATSSVSYMHWYQQKPGKAPKRWIYDTSKLASGVPSRFSGSGSGTDYTLTISSLQPEDAATYYCQQWSSNPLTFGGGTKVEIKR
## Result T

## Task API: above_or_equal(metric=fold decrease in EC50, cutoff=4 fold) for item TPP-1391 Fab fragment (Fab, V domains shown) VH: EVQLVQSGAEVKKPGASVKVSCKASGYKFTSYVMHWVRQAPGQGLEWMGYINPYRDVTKYAEKFQGRVTLTSDTSTSTAYMELSSLRSEDTAVYYCARGSYYDYEGFVYWGQGTLVTVSS VL: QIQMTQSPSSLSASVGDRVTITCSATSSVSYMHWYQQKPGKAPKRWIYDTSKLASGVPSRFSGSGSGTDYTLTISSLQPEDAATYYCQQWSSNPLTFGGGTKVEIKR
## Result T

## Task API: above_or_equal(metric=fold decrease in EC50, cutoff=4 fold) for item TPP-1375 Fab fragment (Fab, V domains shown) VH: EVQLVQSGAEVKKPGASVKVSCKASGYKFRSYVMHWVRQAPGQGLEWMGYINPYNDVTKYAEKFQGRVTLTSDTSTSTAYMELSSLRSEDTAVHYCARGSYYDYEGFVYWGQGTLVTVSS VL: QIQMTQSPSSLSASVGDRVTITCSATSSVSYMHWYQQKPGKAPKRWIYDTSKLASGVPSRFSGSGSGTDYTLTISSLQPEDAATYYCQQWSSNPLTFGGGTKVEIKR
## Result F

## Task API: above_or_equal(metric=fold decrease in EC50, cutoff=4 fold) for item TPP-1393 Fab fragment (Fab, V domains shown) VH: EVQLVQSGAEVKKPGASVKVSCKASGYKFTSYVMHWVRQAPGQGLEWMGYINPYNDVTKYAEKFQGRVTLTSDTSTSTAYMELSSLRSEDTAVYYCARGSYYDYEGFVYWGQGTLVTVSS VL: QIQMTQSPSSLSASVGDRVTITCSATSSVSYMHWYQQKPGKAPKRWIYDTSKLARGVPSRFSGSGSGTDYTLTISSLQPEDAATYYCQQWSSNPLTFGGGTKVEIKR
## Result T
